# study.conditions: 318.15 K; 101 kPa; Liquid; Frequency=2 MHz; Sing-around technique in a fixed-path interferometer
quantity.measured: speed of sound (m/s)

| mol | unit | speed of sound |
| --- | --- | --- |
| C1=CCCCC1 | m/s | 1169.6 |
| OC1CCCCC1 | m/s | 1370.8 |
| CN1CCCC1=O | m/s | 1478 |
| NC1CCCCC1 | m/s | 1342 |

* * *

# study.conditions: 313.15 K; 101 kPa; Liquid; Frequency=2 MHz; Sing-around technique in a fixed-path interferometer
quantity.measured: speed of sound (m/s)

| compound | result.value |
| --- | --- |
| CN1CCCC1=O [N-methylpyrrolidone] | 1501 |
| OC1CCCCC1 [cyclohexanol] | 1395.2 |
| C1=CCCCC1 [cyclohexene] | 1196.6 |
| NC1CCCCC1 [cyclohexylamine] | 1360.6 |

Recorded values, source the NIST ThermoML archive (doi:10.1016/j.tca.2014.06.026).
